These data points were gathered from PubChem BioAssay (NCI).

System: MCF7 breast
procedure details: NCI tumour cell line growth inhibition, 48 h; in the data active means GI50 below about 0.43 µM; inactive means the rest
Classes used: active, inactive

[[record]]
molecule = "Cc1cc(N(CCOS(C)(=O)=O)CCOS(C)(=O)=O)ccc1C(=O)O"
target_system = "MCF7 breast"
cat = "inactive"

[[record]]
molecule = "N#CC1=C(N)Oc2c(ccc3ccccc23)C1c1cc(=O)oc2ccc(Cl)cc12 (stereo not given)"
target_system = "MCF7 breast"
cat = "active"

[[record]]
molecule = "CS(=O)(=O)c1ccc(Nc2nc(N[C@H]3CCCC[C@H]3N)nc3cc[nH]c(=O)c23)cc1"
target_system = "MCF7 breast"
cat = "active"

[[record]]
molecule = "C#C[C@@]1(O)[C@@H](CO)O[C@@H](n2cc(I)c3c(N)ncnc32)[C@@H]1O"
target_system = "MCF7 breast"
cat = "active"

[[record]]
molecule = "O=C(/C=C/C=C/c1ccccc1)c1ccco1"
target_system = "MCF7 breast"
cat = "inactive"

